Target: BRAF V600E (Homo sapiens (Human), UniProt P15056, V600E)
Sequence (P15056 whole entry V600E): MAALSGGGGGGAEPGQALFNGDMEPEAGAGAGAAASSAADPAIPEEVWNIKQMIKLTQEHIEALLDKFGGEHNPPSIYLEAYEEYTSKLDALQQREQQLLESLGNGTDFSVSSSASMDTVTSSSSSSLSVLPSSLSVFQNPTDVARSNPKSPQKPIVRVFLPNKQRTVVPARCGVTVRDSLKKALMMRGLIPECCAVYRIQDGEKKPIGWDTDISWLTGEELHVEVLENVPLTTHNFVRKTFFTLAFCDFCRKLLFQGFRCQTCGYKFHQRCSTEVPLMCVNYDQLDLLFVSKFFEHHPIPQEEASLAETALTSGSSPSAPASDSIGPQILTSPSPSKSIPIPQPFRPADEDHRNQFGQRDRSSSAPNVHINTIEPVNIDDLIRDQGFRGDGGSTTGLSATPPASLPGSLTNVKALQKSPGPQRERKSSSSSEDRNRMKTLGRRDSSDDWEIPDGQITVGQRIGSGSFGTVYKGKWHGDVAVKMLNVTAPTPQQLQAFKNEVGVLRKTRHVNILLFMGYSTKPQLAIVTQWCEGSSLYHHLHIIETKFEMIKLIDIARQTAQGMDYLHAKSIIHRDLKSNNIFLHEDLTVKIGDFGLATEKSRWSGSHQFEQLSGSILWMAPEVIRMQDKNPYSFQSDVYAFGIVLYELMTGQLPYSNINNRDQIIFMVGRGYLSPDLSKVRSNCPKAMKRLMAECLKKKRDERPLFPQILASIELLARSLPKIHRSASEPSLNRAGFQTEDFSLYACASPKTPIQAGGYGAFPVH
Assay: Z′-LYTE kinase inhibition assay (Invitrogen), BRAF V600E
Format: biochemical
Details: 1 μM compound, Z′-LYTE method; read-out: % inhibition at 1 μM against BRAF V600E
assay-endpoint: inhibition at 1 µM

Check out these entries, answers already filled in.
Prompt: Give recorded inhibition at 1 µM with BRAF V600E (Homo sapiens (Human), UniProt P15056, V600E) for the following molecule: `O=C(Nc1cccc(F)c1)Nc1cc(F)c(F)c(C(=O)c2ccc3ncc(N4CCOCC4)nc3c2)c1F`
Response: 70 to 89%

Prompt: Give recorded inhibition at 1 µM with BRAF V600E (Homo sapiens (Human), UniProt P15056, V600E) for the following molecule: `O=C(Nc1cc(F)cc(C(=O)c2ccc3nccnc3c2)c1)Nc1ccc(F)c(Cl)c1`
Response: > 89%

Prompt: Give recorded inhibition at 1 µM with BRAF V600E (Homo sapiens (Human), UniProt P15056, V600E) for the following molecule: `O=C(Nc1ccc(C(F)(F)F)cc1)Nc1ccc(F)c(C(=O)c2ccc3ncc(N4CCOCC4)nc3c2)c1`
Response: > 89%

Then this molecule:
Prompt: Give recorded inhibition at 1 µM with BRAF V600E (Homo sapiens (Human), UniProt P15056, V600E) for the following molecule: `O=C(Nc1cc(F)c(F)c(C(=O)c2ccc3nccnc3c2)c1F)c1cccc(F)c1`
Response: 70 to 89%

* * *

Target: BRAF V600E (Homo sapiens (Human), UniProt P15056, V600E)
Assay: Z′-LYTE kinase inhibition assay (Invitrogen), BRAF V600E
Type: biochemical
Details: 1 μM compound, Z′-LYTE method; read-out: % inhibition at 1 μM against BRAF V600E
assay-endpoint: inhibition at 1 µM

Prompt: Please look up its inhibition at 1 µM: `O=C(Nc1cc(F)cc(C(=O)c2ccc3ncc(N4CCOCC4)nc3c2)c1)Nc1ccc(F)c(F)c1`
Response: > 89%

Prompt: Please look up its inhibition at 1 µM: `O=C(Nc1cccc(C(=O)c2ccc3ncc(-n4ccnc4)nc3c2)c1)c1ccc(Cl)c(C(F)(F)F)c1`
Response: > 89%

Prompt: Please look up its inhibition at 1 µM: `O=C(Nc1ccc(Cl)c(Cl)c1)Nc1ccc(F)c(C(=O)c2ccc3ncc(N4CCOCC4)nc3c2)c1`
Response: > 89%

Give inhibition at 1 µM for all compounds that follow.
1. NCCNc1cnc2ccc(C(=O)c3cc(NC(=O)Nc4ccc(F)c(F)c4)ccc3F)cc2n1
2. O=C(Nc1cccc(C(=O)c2ccc3ncc(N4CCOCC4)nc3c2)c1)Nc1cccc(C(F)(F)F)c1
3. O=C(Nc1cc(F)cc(C(=O)c2ccc3nccnc3c2)c1)c1cccc(C(F)(F)F)c1
4. O=C(Nc1ccc(C(F)(F)F)cc1)Nc1cc(F)cc(C(=O)c2ccc3ncc(N4CCOCC4)nc3c2)c1
5. O=C(Nc1cccc(C(=O)c2ccc3ncc(N4CCOCC4)nc3c2)c1)c1cccc(C(F)(F)F)c1
6. O=C(Nc1cc(F)cc(C(=O)c2ccc3nccnc3c2)c1)c1cccc(F)c1
7. O=C(Nc1ccc(C(F)(F)F)cc1)Nc1cc(F)cc(C(=O)c2ccc3nccnc3c2)c1

Response:
["> 89%", "> 89%", "> 89%", "> 89%", "> 89%", "< 70%", "> 89%"]

* * *

Entries below carry reported IC50 on KDR (VEGFR2) (Homo sapiens (Human), UniProt P35968).
Sequence (P35968 20-1356): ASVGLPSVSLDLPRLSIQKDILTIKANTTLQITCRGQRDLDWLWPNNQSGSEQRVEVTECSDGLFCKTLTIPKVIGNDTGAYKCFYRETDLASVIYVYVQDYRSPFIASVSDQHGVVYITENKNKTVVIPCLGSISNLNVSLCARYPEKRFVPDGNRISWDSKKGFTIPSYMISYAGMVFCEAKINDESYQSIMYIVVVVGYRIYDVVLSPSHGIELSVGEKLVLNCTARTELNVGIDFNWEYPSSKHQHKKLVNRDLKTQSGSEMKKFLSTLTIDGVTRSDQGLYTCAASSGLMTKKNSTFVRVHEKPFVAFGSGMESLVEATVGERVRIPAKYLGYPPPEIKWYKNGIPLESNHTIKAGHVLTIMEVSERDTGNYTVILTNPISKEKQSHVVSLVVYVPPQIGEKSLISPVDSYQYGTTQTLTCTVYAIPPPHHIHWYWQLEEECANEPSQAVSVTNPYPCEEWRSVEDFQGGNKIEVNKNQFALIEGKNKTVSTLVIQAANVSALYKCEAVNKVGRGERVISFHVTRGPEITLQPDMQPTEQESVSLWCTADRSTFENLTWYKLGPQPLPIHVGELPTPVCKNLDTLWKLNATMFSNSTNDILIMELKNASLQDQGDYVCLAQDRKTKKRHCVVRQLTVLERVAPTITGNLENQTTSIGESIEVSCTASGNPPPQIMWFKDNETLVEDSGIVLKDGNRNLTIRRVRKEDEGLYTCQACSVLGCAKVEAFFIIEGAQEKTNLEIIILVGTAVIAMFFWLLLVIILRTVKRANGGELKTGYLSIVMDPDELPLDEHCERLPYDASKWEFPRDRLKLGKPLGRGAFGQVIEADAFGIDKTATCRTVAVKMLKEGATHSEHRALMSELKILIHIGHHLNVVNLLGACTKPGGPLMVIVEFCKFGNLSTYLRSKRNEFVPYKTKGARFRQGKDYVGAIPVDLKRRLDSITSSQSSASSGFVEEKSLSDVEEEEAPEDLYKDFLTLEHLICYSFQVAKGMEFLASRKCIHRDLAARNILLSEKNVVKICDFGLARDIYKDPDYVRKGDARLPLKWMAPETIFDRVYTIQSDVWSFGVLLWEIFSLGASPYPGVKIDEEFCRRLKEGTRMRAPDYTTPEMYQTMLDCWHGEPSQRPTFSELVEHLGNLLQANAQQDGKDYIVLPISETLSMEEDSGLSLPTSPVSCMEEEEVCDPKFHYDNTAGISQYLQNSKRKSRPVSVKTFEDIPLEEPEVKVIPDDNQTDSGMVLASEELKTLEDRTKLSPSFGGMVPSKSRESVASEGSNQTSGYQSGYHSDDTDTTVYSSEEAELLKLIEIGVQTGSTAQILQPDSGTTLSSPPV

Check out these entries, answers already filled in.
Prompt: Please look up its IC50: `O=C(Nc1cccc(C(F)(F)F)c1)Nc1cc(F)c(F)c(C(=O)c2ccc3ncc(N4CCOCC4)nc3c2)c1`
Response: > 0.1 µM

Prompt: Please look up its IC50: `O=C(Nc1cccc(C(F)(F)F)c1)Nc1ccc(F)c(C(=O)c2ccc3ncc(N4CCOCC4)nc3c2)c1`
Response: < 0.1 µM

Prompt: Please look up its IC50: `COc1cnc2ccc(C(=O)c3cc(NC(=O)Nc4ccc(F)cc4)ccc3F)cc2n1`
Response: < 0.1 µM

Prompt: Please look up its IC50: `O=C(Nc1cccc(C(=O)c2ccc3ncc(-c4cccnc4)nc3c2)c1)Nc1ccc(Cl)c(C(F)(F)F)c1`
Response: < 0.1 µM

Prompt: Please look up its IC50: `O=C(Nc1cc(F)c(F)c(C(=O)c2ccc3nccnc3c2)c1F)c1cccc(C(F)(F)F)c1`
Response: > 0.1 µM

Give IC50 for all compounds that follow.
1. O=C(Nc1cccc(C(F)(F)F)c1)Nc1ccc(F)c(C(=O)c2ccc3nccnc3c2)c1
2. O=C(Nc1cccc(C(=O)c2ccc3ncc(N4CCCC4)nc3c2)c1)c1cccc(F)c1
3. O=C(Nc1cccc(F)c1)Nc1cccc(C(=O)c2ccc3ncc(N4CCOCC4)nc3c2)c1
4. O=C(Nc1cccc(C(=O)c2ccc3ncc(-c4cccnc4)nc3c2)c1)c1ccc(C(F)(F)F)c(Cl)c1
5. O=C(Nc1cccc(F)c1)Nc1cccc(C(=O)c2ccc3ncc(N4CCCC4)nc3c2)c1
6. O=C(Nc1ccc(F)c(C(=O)c2ccc3ncc(N4CCOCC4)nc3c2)c1)Nc1ccc(Cl)c(C(F)(F)F)c1
7. O=C(Nc1ccc(F)c(F)c1)Nc1ccc(F)c(C(=O)c2ccc3ncc(N4CCNCC4)nc3c2)c1

Response:
< 0.1 µM
< 0.1 µM
> 0.1 µM
< 0.1 µM
< 0.1 µM
< 0.1 µM
< 0.1 µM

* * *

System: A375 cells
Assay: Inhibition of cancer cell growth, MTT assay, A375
Assay type: cell-based
Conditions: Homo sapiens, A-375, 72 h exposure
Could you please report measured IC50 for the items listed next?

Check out these entries, answers already filled in.
Prompt: Please look up its IC50: `O=C(Nc1ccc(F)c(C(=O)c2ccc3nccnc3c2)c1Cl)c1ccc(Cl)c(C(F)(F)F)c1`
Response: > 5 µM

Prompt: Please look up its IC50: `O=C(Nc1cccc(C(=O)c2ccc3nccnc3c2)c1)Nc1cccc(C(F)(F)F)c1`
Response: > 5 µM

Prompt: Please look up its IC50: `O=C(Nc1cc(F)c(F)c(C(=O)c2ccc3nccnc3c2)c1)Nc1ccc(Cl)c(C(F)(F)F)c1`
Response: < 1 µM

Prompt: Please look up its IC50: `O=C(Nc1cc(F)cc(C(=O)c2ccc3nccnc3c2)c1)c1ccc(Cl)c(C(F)(F)F)c1`
Response: > 5 µM

Prompt: Please look up its IC50: `O=C(Nc1cccc(Cl)c1)Nc1cc(F)cc(C(=O)c2ccc3nccnc3c2)c1`
Response: > 5 µM

Give IC50 for all molecules that follow.
1. O=C(Nc1cccc(C(=O)c2ccc3ncc(N4CCCC4)nc3c2)c1)c1ccc(Cl)c(C(F)(F)F)c1
2. O=C(Nc1ccc(F)c(C(=O)c2ccc3nccnc3c2)c1)c1cccc(F)c1
3. COc1cnc2ccc(C(=O)c3cc(NC(=O)Nc4ccc(F)cc4)ccc3F)cc2n1
4. O=C(Nc1cccc(C(=O)c2ccc3ncc(N4CCOCC4)nc3c2)c1)Nc1ccc(Cl)c(C(F)(F)F)c1

Response:
1. > 5 µM
2. > 5 µM
3. 1 to 5 µM
4. < 1 µM

Give IC50 for all molecules that follow.
1. O=C(Nc1cccc(C(F)(F)F)c1)Nc1ccc(F)c(C(=O)c2ccc3nccnc3c2)c1
2. O=C(Nc1ccc(F)c(C(=O)c2ccc3nccnc3c2)c1)c1ccc(Cl)c(C(F)(F)F)c1

Response:
< 1 µM
1 to 5 µM

Give IC50 for all molecules that follow.
1. O=C(Nc1cccc(C(=O)c2ccc3ncc(N4CCOCC4)nc3c2)c1)c1ccc(Cl)c(C(F)(F)F)c1
2. O=C(Nc1cc(F)cc(Cl)c1)Nc1cc(F)cc(C(=O)c2ccc3nccnc3c2)c1
3. O=C(Nc1ccc(Cl)c(F)c1)Nc1ccc(F)c(C(=O)c2ccc3ncc(N4CCOCC4)nc3c2)c1
4. O=C(Nc1ccc(Cl)c(C(F)(F)F)c1)Nc1ccc(F)c(C(=O)c2ccc3nccnc3c2)c1Cl

Response:
1. 1 to 5 µM
2. > 5 µM
3. < 1 µM
4. > 5 µM

* * *

Molecular target: BRAF V600E (Homo sapiens (Human), UniProt P15056, V600E)
Assay: Z′-LYTE kinase inhibition assay (Invitrogen), BRAF V600E
Assay type: biochemical
Settings: 1 μM compound, Z′-LYTE method; read-out: % inhibition at 1 μM against BRAF V600E
assay-endpoint: inhibition at 1 µM

Check out these entries, answers already filled in.
Prompt: Please look up its inhibition at 1 µM: `O=C(Nc1ccc(F)c(Cl)c1)Nc1ccc(F)c(C(=O)c2ccc3ncc(N4CCOCC4)nc3c2)c1`
Response: > 89%

Prompt: Please look up its inhibition at 1 µM: `O=C(Nc1ccc(F)c(C(=O)c2ccc3nccnc3c2)c1F)c1cccc(F)c1`
Response: 70 to 89%

Prompt: Please look up its inhibition at 1 µM: `O=C(Nc1ccc(F)cc1)Nc1cc(F)c(F)c(C(=O)c2ccc3ncc(N4CCNCC4)nc3c2)c1`
Response: > 89%

Prompt: Please look up its inhibition at 1 µM: `O=C(Nc1cncc(F)c1)Nc1ccc(F)c(C(=O)c2ccc3ncc(N4CCOCC4)nc3c2)c1`
Response: > 89%

Prompt: Please look up its inhibition at 1 µM: `O=C(Nc1cc(F)c(F)c(C(=O)c2ccc3ncc(N4CCOCC4)nc3c2)c1F)c1ccc(Cl)c(C(F)(F)F)c1`
Response: < 70%

Give inhibition at 1 µM for all compounds that follow.
1. O=C(Nc1cccc(C(=O)c2ccc3nccnc3c2)c1)c1cccc(C(F)(F)F)c1
2. O=C(Nc1cc(F)cc(C(=O)c2ccc3nccnc3c2)c1)Nc1ccc(Cl)c(Cl)c1
3. O=C(Nc1ccc(F)c(C(=O)c2ccc3nccnc3c2)c1)c1cccc(C(F)(F)F)c1

Response:
1. 70 to 89%
2. > 89%
3. > 89%
